# Test system: Huh7 (hepatocellular carcinoma) cell line
# Test Details: CellTiter-Glo luminescent cell viability assay, Huh7
# Type: cell-based, human
# Measurement Context: Homo sapiens, Huh-7; Huh7, compound at 4 μM, 72 h

| Compound | Unit Of Measure | viability at 4 µM |
| --- | --- | --- |
| CC(C)CN(Cc1ccc(Cl)cc1)c1cc(N2CCC(NC(C)(C)C)CC2)c2ccccc2n1 | % | 81.5 |
| CNC1CCN(c2c(C#N)c(NCc3ccc(Cl)cc3)nc3ccccc23)C1 (stereo not shown) [Compound 3192CN] | % | 78 |
| CN1CCN(C2CCN(c3c(C#N)c(NCc4ccc(Cl)cc4)nc4ccccc34)C2)CC1 (stereo not shown) [Compound 3200CN] | % | 80.6 |
| COc1ccc(CNc2nc3ccccc3c(N3CCC(NC(C)(C)C)CC3)c2C#N)cc1 [Compound 3290CN] | % | 80.2 |

---

# System: A375 (malignant melanoma) cell line
# Test Details: CellTiter-Glo luminescent cell viability assay, A375
# Format: cell-based, human
# Measurement Context: Homo sapiens, A-375; A375 cell line; 72 h incubation; CellTiter-Glo; read-out: EC50, growth inhibition of A375
Counter-ions that a name gives are not always drawn.
Each record here notes measured EC50.
Recorded Endpoint: EC50

| Compound | Result |
| --- | --- |
| Cc1cc(F)c2nc(NCc3ccc(Cl)cc3)cc(N3CCC(NC(C)(C)C)CC3)c2c1 | 0.5 to 5 µM |
| Clc1ccc(CNc2cc(N3CC[C@H](Oc4ccccn4)C3)c3ccccc3n2)cc1 [Compound 3098, hydrochloride] | 0.5 to 5 µM |
| N#Cc1c(NCc2ccc(Cl)cc2)nc2ccccc2c1N1CCC(N)CC1 [Compound 3170CN] | 0.5 to 5 µM |
| Clc1ccc(CNc2cc(N3CC[C@@H](Oc4ccccc4)C3)c3ccccc3n2)cc1 [Compound 3012, hydrochloride] | 0.5 to 5 µM |
| CN1CCN(C(=O)C2CCN(c3cc(NCc4ccc(Cl)cc4)nc4ccccc34)CC2)CC1 [Compound 1656, hydrochloride] | 0.5 to 5 µM |
| N#Cc1c(NCc2ccc(Cl)cc2)nc2ccccc2c1N1CCC(NC2CCOCC2)CC1 [Compound 3180CN] | 5 to 10 µM |
| CC(C)(C)NC1CCN(c2c(C#N)c(NCc3ccccc3)nc3ccccc23)CC1 [Compound 3286CN] | 0.5 to 5 µM |
| CC(C)(C)NC1CCN(c2c(C#N)c(Nc3cccc(F)c3)nc3ccccc23)CC1 [Compound 3262CN] | 5 to 10 µM |
| CNC(=O)C1CCN(c2cc(NCc3ccc(Cl)cc3)nc3ccccc23)CC1 [Compound 1598, hydrochloride] | 5 to 10 µM |
| Cc1cc(C)nc(Nc2ccc(Nc3nc4ccccc4c(N4CCC(NC(C)(C)C)CC4)c3C#N)cc2C)n1 [Compound 502CN] | 0.5 to 5 µM |
| N#Cc1c(NCc2ccc(Cl)cc2)nc2ccccc2c1N1CCC(N2CCCC2)CC1 [Compound 200CN] | 0.5 to 5 µM |
| COc1ccc(Nc2nc3ccccc3c(N3CCC(NC(C)(C)C)CC3)c2C#N)cc1 [Compound 3252CN] | 0.5 to 5 µM |
| N#Cc1c(NCc2ccc(Cl)cc2)nc2ccccc2c1N1CCCC(N)C1 (stereo not drawn) [Compound 3156CN] | 0.5 to 5 µM |
| COC(=O)c1c(NCc2ccc(Cl)cc2)nc2ccccc2c1N1CCC(NC(C)(C)C)CC1 | 0.5 to 5 µM |
| CC(C)(C)NC(=O)C1CCN(c2cc(NCc3ccc(Cl)cc3)nc3ccccc23)CC1 [Compound 1604, hydrochloride] | 5 to 10 µM |
| N#Cc1c(NCc2ccc(Cl)cc2)nc2ccccc2c1N1CCC(NC2CCCC2)CC1 [Compound 3178CN] | 0.5 to 5 µM |
| CNC1CCCN(c2c(C#N)c(NCc3ccc(Cl)cc3)nc3ccccc23)C1 (stereo not drawn) [Compound 3158CN] | 0.5 to 5 µM |
| CC(C)(C)NC1CCN(c2c(C#N)c(NCc3ccc(F)cc3)nc3ccccc23)CC1 [Compound 240CN] | 0.5 to 5 µM |

---

# Test system: HCT-116 (colorectal carcinoma) cell line
# Test Details: CellTiter-Glo luminescent cell viability assay, HCT-116
# Format: cell-based, human
# Measurement Context: Homo sapiens; HCT-116, compound at 10 μM, 72 h

| Compound | Unit Of Measure | viability at 10 µM |
| --- | --- | --- |
| N#Cc1c(NCc2ccc(Cl)cc2)nc2ccccc2c1N1CCC(NC2CCCC2)CC1 [Compound 3178CN] | % | 0.4 |
| COc1cc(C)nc(Nc2ccc(Nc3nc4ccccc4c(N4CCC(NC(C)(C)C)CC4)c3C#N)cc2C)n1 [Compound 510CN] | % | 0.1 |
| CC(C)(C)OC(=O)NC1CCCN(c2c(C#N)c(NCc3ccc(Cl)cc3)nc3ccccc23)C1 (centres unmarked) [Compound 154CN] | % | 87.2 |
| CC(C)(C)NC1CCN(c2c(F)c(Nc3cccc(Nc4nccc(C(F)(F)F)n4)c3)nc3ccccc23)CC1 [Compound 540F] | % | 0.3 |
| CC(C)(C)NC1CCN(c2c(C#N)c(Nc3ccc(Cl)cc3)nc3ccccc23)CC1 [Compound 3258CN] | % | 0.6 |
| COc1ccc(OC2CCN(c3c(C#N)c(NCc4ccc(Cl)cc4)nc4ccccc34)CC2)cc1 [Compound 3224CN] | % | 65.1 |
| CN1CCN(C2CCCN(c3c(C#N)c(NCc4ccc(Cl)cc4)nc4ccccc34)C2)CC1 (centres unmarked) [Compound 3168CN] | % | 0.5 |
| N#Cc1c(NCc2ccc(Cl)cc2)nc2ccccc2c1N1CCC(Oc2cccc(F)c2)C1 (centres unmarked) [Compound 3340CN] | % | 86.3 |
| N#Cc1c(NCc2ccc(Cl)cc2)nc2ccccc2c1N1CCC(N2CCOCC2)CC1 [Compound 202CN] | % | 33.5 |
| CN1CCN(C2CCN(c3c(C#N)c(NCc4ccc(Cl)cc4)nc4ccccc34)C2)CC1 (centres unmarked) [Compound 3200CN] | % | 0.4 |
| CC(C)(C)NC1CCN(c2c(C#N)c(Nc3cccc(C(F)(F)F)c3)nc3ccccc23)CC1 [Compound 3256CN] | % | 0.2 |

---

# Test system: Huh7 (hepatocellular carcinoma) cell line
# Test Details: CellTiter-Glo luminescent cell viability assay, Huh7
# Assay type: cell-based, human
# Measurement Context: Homo sapiens, Huh-7; Huh7, compound at 4 μM, 72 h
# Protocol: All cell lines were maintained in medium containing 1% penicillin-streptomycin (Dutscher, P06-07100) and 10% Fetal Bovine Serum (Hyclone Dutscher, RZK35922) cultured at 37° C. with 5% CO2. […] Cell viability was measured using the CellTiter-Glo® luminescent cell viability assay as described by the manufacturer (Promega, Ref G7571) using an Infinite F200Pro luminometer (Tecan). […]

| Compound | viability at 4 µM [%] |
| --- | --- |
| CN(C)C1CCN(c2c(C#N)c(NCc3ccc(Cl)cc3)nc3ccccc23)C1 (centres unmarked) [Compound 3202CN] | 91.1 |
| CN(C)C1CCCN(c2c(C#N)c(NCc3ccc(Cl)cc3)nc3ccccc23)C1 (centres unmarked) [Compound 3164CN] | 91.9 |
| Cc1cc(OC2CCN(c3c(C#N)c(NCc4ccc(Cl)cc4)nc4ccccc34)CC2)no1 [Compound 2978CN] | 87 |
| CN1CCN(C2CCCN(c3c(C#N)c(NCc4ccc(Cl)cc4)nc4ccccc34)C2)CC1 (centres unmarked) [Compound 3168CN] | 80.1 |
| CC(C)(C)NC1CCN(c2c(C#N)c(Nc3ccccn3)nc3ccccc23)CC1 [Compound 3278CN] | 95 |
| N#Cc1c(NCc2ccc(Cl)cc2)nc2ccccc2c1N1CCC(Oc2ccccc2)CC1 [Compound 2940CN] | 97.3 |
| N#Cc1c(NCc2ccc(Cl)cc2)nc2ccccc2c1N1CCC(Oc2cccc(F)c2)CC1 [Compound 3228CN] | 117 |
| N#Cc1c(NCc2ccc(Cl)cc2)nc2ccccc2c1N1CCCC(N2CCCC2)C1 (centres unmarked) [Compound 176CN] | 96.4 |
